The measured values listed here are drawn from patent US5545640A.

Exercise: state measured IC50 for each of the compounds provided.
study-target: HIV protease (Human immunodeficiency virus type 1 group M subtype B, UniProt P04585)
Construct: an HIV-encoded enzyme known as HIV protease
assay-remarks: biochemical
test-parameters: read-out: IC50 (concentration causing 50% inhibition of HIV protease)
All answers are understood in nM, so give the number only.

The observed IC50 for CC(C)[C@H](NC(=O)OCc1ccccc1)C(=O)N[C@@H](Cc1ccccc1)[C@H](O)CNC(=O)C(CC(=O)NC(C)(C)C)C(C)(C)C (some centres unmarked) [Entry 51] when tested with HIV protease (Human immunodeficiency virus type 1 group M subtype B, UniProt P04585) stands at 7

The observed IC50 for CCC(CC)NC(=O)C[C@@H](C(=O)NC[C@@H](O)[C@H](Cc1ccccc1)NC(=O)[C@@H](NC(=O)c1cnc2ccccc2n1)[C@@H](C)O)C(C)(C)C [Entry 26] when tested with HIV protease (Human immunodeficiency virus type 1 group M subtype B, UniProt P04585) stands at 4

The observed IC50 for CCC(CC)NC(=O)C[C@@H](C(=O)NC[C@@H](O)[C@H](Cc1ccccc1)NC(=O)[C@@H](NC(=O)c1cnc2ccccc2n1)C(C)C)C(C)(C)C [Entry 31] when tested with HIV protease (Human immunodeficiency virus type 1 group M subtype B, UniProt P04585) stands at 3

The observed IC50 for CCC(CC)NC(=O)C[C@@H](C(=O)NC[C@@H](O)[C@H](Cc1ccccc1)NC(=O)[C@@H](NC(=O)c1ccc2ccccc2n1)C(C)C)C(C)(C)C [Entry 29] when tested with HIV protease (Human immunodeficiency virus type 1 group M subtype B, UniProt P04585) stands at 3

The observed IC50 for CCC(CC)NC(=O)C[C@@H](C(=O)NC[C@@H](O)[C@H](Cc1ccccc1)NC(=O)[C@H](CC(N)=O)NC(=O)C1Cc2ccccc2N1)C(C)(C)C (some centres unmarked) [Entry 30] when tested with HIV protease (Human immunodeficiency virus type 1 group M subtype B, UniProt P04585) stands at 3

* * *

study-target: HIV protease (Human immunodeficiency virus type 1 group M subtype B)
Construct: an HIV-encoded enzyme known as HIV protease
assay-remarks: biochemical
test-parameters: recombinant HIV protease; decapeptide substrate; HPLC assay; read-out: IC50 (concentration causing 50% inhibition of HIV protease)
Exercise: state measured pIC50 for each of the compounds provided.
FYI, pIC50 means -log10 of a concentration in mol per litre.

For record CCC(CC)NC(=O)C[C@@H](C(=O)NC[C@@H](O)[C@H](Cc1ccccc1)NC(=O)[C@H](CC(N)=O)NC(=O)CCCc1ccccc1)C(C)(C)C [Entry 21] the listed pIC50 is 8.30

For record CCC(CC)NC(=O)C[C@@H](C(=O)NC[C@@H](O)[C@H](Cc1ccccc1)NC(=O)[C@H](CO)NC(=O)c1ccc2ccccc2n1)C(C)(C)C [Entry 6] the listed pIC50 is 7.57

For record CCC(CC)NC(=O)C[C@@H](C(=O)NC[C@@H](O)[C@H](Cc1ccccc1)NC(=O)c1cc2ccccc2n1C)C(C)(C)C [Entry 64] the listed pIC50 is 8.05

* * *

study-target: HIV protease (Human immunodeficiency virus type 1 group M subtype B)
Construct: an HIV-encoded enzyme known as HIV protease
assay-remarks: biochemical
test-parameters: recombinant HIV protease; decapeptide substrate; HPLC assay; read-out: IC50 (concentration causing 50% inhibition of HIV protease)
pIC50: −log10 of the molar value.
# cutoff 8 applies to pIC50; >= gives criterion met, < gives criterion not met

Reported pIC50 at or above 8? `CCC(CC)NC(=O)C[C@@H](C(=O)NC[C@@H](O)[C@H](Cc1ccccc1)NC(=O)[C@H](CC(N)=O)NC(=O)c1nccc2ccccc12)C(C)(C)C` criterion not met

Reported pIC50 at or above 8? `CCC(CC)NC(=O)C[C@@H](C(=O)NC[C@@H](O)[C@H](Cc1ccccc1)NC(=O)c1cccc(N)c1C)C(C)(C)C` criterion met

Reported pIC50 at or above 8? `CCC(CC)NC(=O)C[C@@H](C(=O)NC[C@@H](O)[C@H](Cc1ccccc1)NC(=O)[C@H](CC(N)=O)NC(=O)c1ccc2ccccc2n1)C(C)(C)C` criterion met

Reported pIC50 at or above 8? `CCC(CC)NC(=O)C[C@@H](C(=O)NC[C@@H](O)[C@H](Cc1ccccc1)NC(=O)[C@H](CC(N)=O)NC(=O)c1cnc2ccccc2c1)C(C)(C)C` criterion met

Reported pIC50 at or above 8? `CCC(CC)NC(=O)C[C@@H](C(=O)NC[C@@H](O)[C@H](Cc1ccccc1)NC(=O)c1ccc(Cl)cc1Cl)C(C)(C)C` criterion met

Reported pIC50 at or above 8? `CCC(CC)NC(=O)C[C@@H](C(=O)NC[C@@H](O)[C@H](Cc1ccccc1)NC(=O)[C@H](CC(N)=O)NC(=O)CNc1ccccc1)C(C)(C)C` criterion met

Reported pIC50 at or above 8? CCC(CC)NC(=O)C[C@@H](C(=O)NC[C@@H](O)[C@H](Cc1ccccc1)NC(=O)[C@H](CC(N)=O)NC(=O)C1Cc2ccccc2CN1)C(C)(C)C (stereo partly drawn) [Entry 24] criterion met

Reported pIC50 at or above 8? `CCC(CC)NC(=O)C[C@@H](C(=O)NC[C@@H](O)[C@H](Cc1ccccc1)NC(=O)[C@H](CC(=O)O)NC(=O)OC(C)(C)C)C(C)(C)C` criterion not met

Reported pIC50 at or above 8? `CCC(CC)NC(=O)C[C@@H](C(=O)NC[C@@H](O)[C@H](Cc1ccccc1)NC(=O)[C@@H](NC(=O)c1ccc2ccccc2n1)[C@@H](C)O)C(C)(C)C` criterion met

Reported pIC50 at or above 8? CCCC(CCC)NC(=O)C1CCCCC1C(=O)NC[C@@H](O)[C@H](Cc1ccccc1)NC(=O)[C@@H](NC(=O)OCc1ccccc1)C(C)C (stereo partly drawn) criterion not met

Reported pIC50 at or above 8? CCC(CC)NC(=O)CC(C(=O)NC[C@@H](O)[C@H](Cc1ccccc1)NC(=O)[C@H](CC(N)=O)NC(=O)OCc1ccccc1)C(C)C (stereo partly drawn) criterion not met

* * *

Exercise: state measured IC50 for each of the compounds provided.
study-target: HIV protease (Human immunodeficiency virus type 1 group M subtype B)
Construct: an HIV-encoded enzyme known as HIV protease
assay-remarks: biochemical
test-parameters: recombinant HIV protease; decapeptide substrate; HPLC assay; read-out: IC50 (concentration causing 50% inhibition of HIV protease)
From the text: The procedure is based on the capacity of the test compound to inhibit enzymatic cleavage by HIV protease of a decapeptide (the substrate) having an amino acid sequence which includes a known HIV protease cleavage site of a HIV polyprotein; see H. G. Krausslich et al., Proc. Natl. Acad. Sci. USA, 86, 807 (1989). Anderson, S. Rakhit and C. Yoakim in the European patent application 443 560, published Aug. 28, 1991.
All answers are understood in nM, so give the number only.

The observed IC50 for `CCC(CC)NC(=O)C[C@@H](C(=O)NC[C@@H](O)[C@H](Cc1ccccc1)NC(=O)[C@@H](NC(=O)c1ccc2ccccc2n1)C1(C(=O)O)CCCC1)C(C)(C)C` when tested with HIV protease (Human immunodeficiency virus type 1 group M subtype B) stands at 3

The observed IC50 for `CCC(CC)NC(=O)C[C@@H](C(=O)NC[C@@H](O)[C@H](Cc1ccc(O)cc1)NC(=O)[C@@H](NC(=O)c1ccc2ccccc2n1)[C@@H](C)O)C(C)(C)C` when tested with HIV protease (Human immunodeficiency virus type 1 group M subtype B) stands at 61

The observed IC50 for `CCC(CC)NC(=O)C[C@@H](C(=O)NC[C@@H](O)[C@H](Cc1ccccc1)NC(=O)[C@@H](NC(=O)c1ccc2ccccc2n1)C(C)(C)C)C(C)(C)C` when tested with HIV protease (Human immunodeficiency virus type 1 group M subtype B) stands at 4

The observed IC50 for `Cc1cccc(C)c1NC(=O)C[C@@H](C(=O)NC[C@@H](O)[C@H](Cc1ccccc1)NC(=O)COc1c(C)cccc1C)C(C)(C)C` when tested with HIV protease (Human immunodeficiency virus type 1 group M subtype B) stands at 2.6

The observed IC50 for `CC(C)c1cccc(C(C)C)c1NC(=O)C[C@@H](C(=O)NC[C@@H](O)[C@H](Cc1ccccc1)NC(=O)[C@@H](NC(=O)c1ccc2ccccc2n1)[C@@H](C)O)C(C)(C)C` when tested with HIV protease (Human immunodeficiency virus type 1 group M subtype B) stands at 19

The observed IC50 for CCC(CC)NC(=O)C[C@@H](C(=O)NC[C@@H](O)[C@H](Cc1ccccc1)NC(=O)[C@H](CC(N)=O)NC(=O)C1Cc2ccccc2CN1)C(C)(C)C (stereo partly shown) [Entry 5] when tested with HIV protease (Human immunodeficiency virus type 1 group M subtype B) stands at 32

The observed IC50 for `CCC(CC)NC(=O)C[C@@H](C(=O)NC[C@@H](O)[C@H](Cc1ccccc1)NC(=O)[C@H](CC(N)=O)NC(=O)OCc1ccccc1)C(C)(C)C` when tested with HIV protease (Human immunodeficiency virus type 1 group M subtype B) stands at 5

The observed IC50 for `CCC(CC)NC(=O)C[C@@H](C(=O)NC[C@@H](O)[C@H](Cc1ccccc1)NC(=O)[C@@H](NC(=O)OCc1ccccc1)C(C)(C)C)C(C)(C)C` when tested with HIV protease (Human immunodeficiency virus type 1 group M subtype B) stands at 3

The observed IC50 for `CCCC(CCC)NC(=O)C[C@@H](C(=O)NC[C@@H](O)[C@H](Cc1ccccc1)NC(=O)[C@H](CC(N)=O)NC(=O)c1ccc2ccccc2n1)C(C)(C)C` when tested with HIV protease (Human immunodeficiency virus type 1 group M subtype B) stands at 4

The observed IC50 for `CCC(CC)NC(=O)C[C@@H](C(=O)NC[C@@H](O)[C@H](Cc1ccccc1)NC(=O)[C@H](CCC(N)=O)NC(=O)OCc1ccccc1)C(C)(C)C` when tested with HIV protease (Human immunodeficiency virus type 1 group M subtype B) stands at 19
